Target: T1, Monomeric 8-histidine tagged human EGFRvIII extracellular domain (human, UniProt P00533 298-645)
T1 construct: Analyte in all SPR assays; not shown: 8-histidine tag
Assay: SPR, captured by anti-mouse Fc, 37 C
What kon was measured for each of the following?
Remember to quote the unit after the number.

# input What value of kon has been reported for the following binder? 29D5 (antibody, V domains shown, Hybridoma supernatant (AlivaMab mouse); captured/detected via mouse Fc) VH: QVTLKESGPVLVKPTETLTLTCTVSGFSLSNPRMGVSWLRQPPGKALEWFAHIFSTDEKSYSPSLRGRLTVSKDTSKSQVVLTLTNMDPVDTATYYCARDSSNYEGYFDYWGQGTLVTVSS VL: KIVMTQSPATLSVSPGERATLSCRANQIVSSNLAWYQQKPGQAPRLLVFGTSTRATGIPIRFSGSGSGTEFTLTVSSLQSEDFAVYVCQQYNDWPFTFGPGTKVDIK
# output 102000 M⁻¹ s⁻¹

# input What value of kon has been reported for the following binder? 34E7 (antibody, V domains shown, Hybridoma supernatant (AlivaMab mouse); captured/detected via mouse Fc) VH: EVNLVESGGGLVKPGGSLRLSCEASGFTFSYAWMSWVRQAPGKGLEWVGRIKSINDGGATDYASPVRNRFTISRDDSRNMLYLEMHSLKTEDTAVYYCTTIPGNDAFDMWGQGTLVTVSS VL: DIVLTQSPLSLSVTPGEPASISCRSTQSLLYSNGKNYLDWFLHKPGQSPQLLIFLGSIRASGVPDRFSGSGSGIDFILKISRVEAEDVGVYYCMQAQQTPITFGQGTRLEIK
# output 37700 M⁻¹ s⁻¹

# input What value of kon has been reported for the following binder? 12H6 (antibody, V domains shown, Hybridoma supernatant (AlivaMab mouse); captured/detected via mouse Fc) VH: QVTLKESGPVLVKPTETLTLTCTVSGFSLSNARMGVSWIRQPPGKALEWLAHIFSTDEKSIRRSLRSRLTLSKDTSKSQVVLTMTNMDPVDTATYYCARDSSNYEGYFDYWGQGTLVTVSS VL: EVVMTQSPATLSVSPGERATLSCRASQGVSSNFAWYQQRPGQSPRLLLYGASTRATGVPGRFSGSGSGTENILTISSLQSEDFAIYFCQQYKDWPFTFGPGSKVDIK
# output 59300 M⁻¹ s⁻¹
